Biological target: Human PARG (Homo sapiens)
Construct: The human PARG (hPARG) catalytic domain (residues 389–976) was cloned in pET28a (Novagen); His-tag (N); made in house; host or cells: E. coli Rosetta
Sequence (Q86W56 389-976): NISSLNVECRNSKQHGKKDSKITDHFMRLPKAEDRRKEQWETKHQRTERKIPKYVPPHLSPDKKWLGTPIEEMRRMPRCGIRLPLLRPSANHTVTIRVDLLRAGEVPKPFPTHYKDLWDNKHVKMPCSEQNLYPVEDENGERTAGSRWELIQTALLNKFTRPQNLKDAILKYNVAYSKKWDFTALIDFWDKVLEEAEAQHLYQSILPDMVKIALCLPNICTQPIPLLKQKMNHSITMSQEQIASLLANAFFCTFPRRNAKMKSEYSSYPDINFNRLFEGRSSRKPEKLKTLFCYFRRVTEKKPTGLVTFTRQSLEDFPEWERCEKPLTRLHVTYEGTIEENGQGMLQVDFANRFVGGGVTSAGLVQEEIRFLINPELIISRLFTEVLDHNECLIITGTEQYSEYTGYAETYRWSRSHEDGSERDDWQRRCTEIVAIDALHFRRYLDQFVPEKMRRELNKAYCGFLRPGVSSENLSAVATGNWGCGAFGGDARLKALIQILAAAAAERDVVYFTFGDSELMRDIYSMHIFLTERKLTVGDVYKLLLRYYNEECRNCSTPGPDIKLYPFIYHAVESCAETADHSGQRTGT
Assay: Gel-based PARG activity assay
Assay type: biochemical
Details: [L] 0.0976562 uM
Below, each entry is listed alongside its reported inhibition at 0.0976562 µM.
State just the number; it will be interpreted in %.

Look over these answered cases.
In [3]: df
Out[3]:
                                   compound  unit_descriptor  reported_measurement
0  Cn1c(=O)c2[nH]c(SCCN3CCOCC3)nc2n(C)c1=S [JA2-5]                %                  19.6
1  Cn1c(=S)c2nc(SCCN3CCCC3)[nH]c2n(C)c1=O [JA2-4]                %                   4.3
2  Cn1c(=S)c2[nH]c(SCCN3CCOCC3)nc2n(C)c1=O [JA2131]                %                  26.2

Now consider the entry below.
Please give the documented inhibition at 0.0976562 µM of Cn1c(=O)c2[nH]c(SCCN3CCOCC3)nc2n(C)c1=O [JA2120]
5.87
